Biological target: 5-HT1A receptor (Rattus norvegicus, UniProt P19327)
Assay: Inhibition of 3H-8-OH-DPAT binding to serotonin 5-HT1A receptors in rat brain in vitro
Design: 5-HT1A receptors in membranes from rat brain minus cerebellum; from tissue; host or cells: rat brain minus cerebellum, membranes
Details: 3H-8-OH-DPAT 1 nM; membranes from rat brain minus cerebellum; read-out: IC50, 3H 8-OH-DPAT binding
Protocol: Inhibition of ^3 H-8-OH-DPAT Binding to Serotonin 5-HT1A Receptors in Rat Brain in vitro. By this method the inhibition by drugs of the binding of the 5-HT1A agonist 3H-8-OH-DPAT (1 nM) to 5-HT1A receptors in membranes from rat brain minus cerebellum is determined in vitro . Accordingly, this is a test for affinity for the 5-HT1A receptor. The assay was performed as described by Hyttel et al., Drug Dev. Res. 1988, 15, 389-404.
measuredParameter: IC50 (nM)

I. O=C1N(CCN2CCN(c3cccc4c3OCC4)CC2)CCN1c1ccc(F)cc1 [Compound 2i]
II. CCN1CCN(CCN2CCN(c3cccc4c3OCCO4)CC2)C1=O [Compound 2l]
III. CC1(C)Cc2cc(F)cc(N3CCN(CCCCN4CCN(C5CCCCC5)C4=O)CC3)c2O1 [Compound 2mm]
IV. CC1(C)Cc2cccc(N3CCN(CCCN4CCN(c5ccccc5)C4=O)CC3)c2O1 [Compound 2ff]
V. O=C1N(CCN2CCN(c3cccc4ccccc34)CC2)CCN1c1ccccc1 [Compound 2k]
Prompt: Sort by IC50 with smallest numbers at the start of the list. Answer by listing the labels in the requested order.
Completion: III, IV, V, I, II
(III: 1.7 nM, IV: 6.6 nM, V: 15 nM, I: 30 nM, II: 72 nM)

---

Target: 5-HT1A receptor (Rattus norvegicus, UniProt P19327)
Sequence (P19327 1-422): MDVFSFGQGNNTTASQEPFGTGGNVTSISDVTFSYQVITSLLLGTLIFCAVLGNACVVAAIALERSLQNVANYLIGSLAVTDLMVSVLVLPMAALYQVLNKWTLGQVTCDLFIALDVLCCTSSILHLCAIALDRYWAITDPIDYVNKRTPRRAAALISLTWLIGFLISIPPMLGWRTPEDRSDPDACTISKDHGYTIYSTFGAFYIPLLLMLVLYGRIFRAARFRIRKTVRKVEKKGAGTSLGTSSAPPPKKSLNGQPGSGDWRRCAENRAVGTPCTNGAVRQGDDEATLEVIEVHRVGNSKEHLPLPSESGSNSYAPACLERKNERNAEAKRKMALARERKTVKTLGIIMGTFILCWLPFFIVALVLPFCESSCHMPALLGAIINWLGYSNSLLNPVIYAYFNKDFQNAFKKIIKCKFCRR
Assay: Inhibition of 3H-8-OH-DPAT binding to serotonin 5-HT1A receptors in rat brain in vitro
Set-up: 5-HT1A receptors in membranes from rat brain minus cerebellum; from tissue; host or cells: rat brain minus cerebellum, membranes
Details: 3H-8-OH-DPAT 1 nM; membranes from rat brain minus cerebellum; read-out: IC50, 3H 8-OH-DPAT binding
measuredParameter: IC50 (nM)

I. O=C1N(CCN2CCN(c3cccc4ccsc34)CC2)CCN1c1ccccc1
II. CC1(C)Cc2cccc(N3CCN(CCN4CCN(C5CCCC5)C4=O)CC3)c2O1
III. O=C1N(CCN2CCN(c3cc(Cl)cc4cc(-c5ccccc5)oc34)CC2)CCN1C1CCCC1
Prompt: # sort list by recorded IC50, greatest to least Answer by listing the labels in the requested order.
Completion: III, I, II
(III: 300 nM, I: 15 nM, II: 3.7 nM)

---

target: 5-HT1A receptor (Rattus norvegicus); test: Generalization to the discriminative stimulus properties induced by 8-OH-DPAT in rats (8-OH-DPAT cue, agonism); assay type: in vivo, rat (male Wistar); set-up: from tissue; host or cells: living male Wistar rat (in vivo, endogenous receptor); details: rat, sc; usually 30 or 45 min before test
measuredParameter: ED50 (µmol/kg)

Use these answered entries as a reference point.
compound	readoutUnit	readoutNumber
O=S(=O)(CCCN1CCN(c2cccc3c2OCCO3)CC1)C12CC3CC(CC(C3)C1)C2 [Compound 1f]	µmol/kg	0.052
CC(C)N1CCN(CCN2CCN(c3cccc4c3OCCO4)CC2)C1=O [Compound 2o]	µmol/kg	27

1. O=C1N(CCN2CCN(c3cccc4c3OCCO4)CC2)CCN1c1ccccc1 [Compound 2c]
2. O=S(=O)(CCCN1CCN(c2cccc3c2OCC3)CC1)C1CCCCC1 [Compound 1c]
Prompt: Given the two records 1 and 2 , choose the one whose ED50 value is lower. Identify your pick by its label.
Completion: 2

---

biological target: 5-HT1A receptor (Rattus norvegicus, UniProt P19327); experiment: Inhibition of 3H-8-OH-DPAT binding to serotonin 5-HT1A receptors in rat brain in vitro; parameters: 5-HT1A receptors in membranes from rat brain minus cerebellum; from tissue; host or cells: rat brain minus cerebellum, membranes; settings: 3H-8-OH-DPAT 1 nM; membranes from rat brain minus cerebellum; read-out: IC50, 3H 8-OH-DPAT binding
measuredParameter: IC50 (nM)

Use these answered entries as a reference point.
molecule	readoutNumber
O=C1N(CCCCN2CCN(c3cccc4c3OCCO4)CC2)CCN1C1CCCCC1 [Compound 2e]	0.45
CCOC(=O)c1cc2c(N3CCN(CCN4CCN(C5CCCC5)C4=O)CC3)cccc2o1 [Compound 2cc]	83
O=C1N(CCN2CCN(c3cccc4cc[nH]c34)CC2)CCN1C1CCCC1 [Compound 2u]	110
O=C1N(CCN2CCN(c3cccc4cc[nH]c34)CC2)CCN1c1ccccc1 [Compound 2v]	71
CC1(C)Cc2cccc(N3CCN(CCCCN4CCN(C56CC7CC(CC(C7)C5)C6)C4=O)CC3)c2O1 [Compound 2gg]	2.8
O=C1N(CCN2CCN(c3cccc4nsnc34)CC2)CCN1c1ccccc1 [Compound 2h]	28
CS(=O)(=O)CCCN1CCN(c2cccc3c2OCC3)CC1 [Compound 1d]	190
O=S(=O)(CCN1CCN(c2cccc3c2OCC3)CC1)C1CCCCC1 [Compound 6a]	220
O=C1N(CCN2CCN(c3cccc4occc34)CC2)CCN1C1CCCC1 [Compound 2s]	32
CC1(C)Cc2cccc(N3CCN(CCCCN4CCN(c5cccc6ccccc56)C4=O)CC3)c2O1 [Compound 2jj]	1.1

I. [O-][S+](CCCN1CCN(c2cccc3c2OCCO3)CC1)C1CCCCC1 (centres unmarked) [Compound 3a]
II. O=C1N(CCN2CCN(c3cccc4[nH]ccc34)CC2)CCN1C1CCCC1 [Compound 2y]
III. CC1(C)COc2c(N3CCN(CCCCCCN4CCN(C5CCCC5)C4=O)CC3)cccc21 [Compound 14c]
IV. O=C1N(CCCN2CCN(c3cccc4c3OCCO4)CC2)CCN1c1ccccc1 [Compound 2a]
Prompt: Highest IC50 first, then in falling order down to the smallest. Answer by listing the labels in the requested order.
Completion: II, IV, III, I

1. CC1(C)COc2c(N3CCN(CCCCCCN4CCN(C5CCCC5)C4=O)CC3)cc(Cl)cc21 [Compound 2pp]
2. CC1(C)COc2c(N3CCN(CCN4CCN(C5CCCC5)C4=O)CC3)cccc21 [Compound 14b]
3. O=C1N(CCN2CCN(c3cccc4c3OCCO4)CC2)CCN1C12CC3CC(CC(C3)C1)C2 [Compound 2q]
Prompt: rank_up(items): orders items by reported IC50 in ascending numerical order. Answer by listing the labels in the requested order.
Completion: 3, 1, 2
(3: 13 nM, 1: 20 nM, 2: 38 nM)

---

Biological target: 5-HT1A receptor (Rattus norvegicus, UniProt P19327)
Sequence (P19327 1-422): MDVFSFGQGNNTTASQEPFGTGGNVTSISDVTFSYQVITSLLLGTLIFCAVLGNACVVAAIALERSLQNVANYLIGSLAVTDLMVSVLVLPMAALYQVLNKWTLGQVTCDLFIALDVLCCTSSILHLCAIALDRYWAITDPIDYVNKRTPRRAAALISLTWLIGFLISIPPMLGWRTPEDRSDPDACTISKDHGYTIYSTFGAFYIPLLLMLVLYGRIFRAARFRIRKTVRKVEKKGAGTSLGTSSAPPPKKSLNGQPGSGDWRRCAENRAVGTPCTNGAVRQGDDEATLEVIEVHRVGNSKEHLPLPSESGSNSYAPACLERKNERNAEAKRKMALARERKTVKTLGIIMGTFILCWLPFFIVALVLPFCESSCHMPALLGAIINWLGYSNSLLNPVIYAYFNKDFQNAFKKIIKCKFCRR
Assay: Antagonism of the discriminative stimulus properties induced by 8-OH-DPAT in rats (8-OH-DPAT cue)
Format: in vivo, rat (male Wistar)
Design: from tissue; host or cells: living male Wistar rat (in vivo, endogenous receptor)
Details: sc, before 8-OH-DPAT 0.4 mg/kg i.p.
measuredParameter: ED50

For reference, reported ED50 for O=S(=O)(CCCN1CCN(c2cccc3c2OCCO3)CC1)C1CCCCC1 stands at > 0.62 µmol/kg

For reference, reported ED50 for O=C1N(CCCN2CCN(c3cccc4c3OCCO4)CC2)CCN1c1ccccc1 stands at > 11 µmol/kg

For reference, reported ED50 for CC(C)S(=O)(=O)CCCN1CCN(c2cccc3c2OCCO3)CC1 stands at > 10 µmol/kg

For reference, reported ED50 for O=C1N(CCN2CCN(c3cccc4c3OCCO4)CC2)CCN1c1ccccc1 stands at > 2.6 µmol/kg

For reference, reported ED50 for O=C1N(CCCN2CCN(c3cccc4c3OCC4)CC2)CCN1c1ccccc1 stands at > 11 µmol/kg

# credit: patent US5753661A
